In this section we review reported pIC50 values for a set of compounds.
Molecular target: AHR (Mus musculus)
Sequence (P30561 1-848 P471L/N533S/M589L): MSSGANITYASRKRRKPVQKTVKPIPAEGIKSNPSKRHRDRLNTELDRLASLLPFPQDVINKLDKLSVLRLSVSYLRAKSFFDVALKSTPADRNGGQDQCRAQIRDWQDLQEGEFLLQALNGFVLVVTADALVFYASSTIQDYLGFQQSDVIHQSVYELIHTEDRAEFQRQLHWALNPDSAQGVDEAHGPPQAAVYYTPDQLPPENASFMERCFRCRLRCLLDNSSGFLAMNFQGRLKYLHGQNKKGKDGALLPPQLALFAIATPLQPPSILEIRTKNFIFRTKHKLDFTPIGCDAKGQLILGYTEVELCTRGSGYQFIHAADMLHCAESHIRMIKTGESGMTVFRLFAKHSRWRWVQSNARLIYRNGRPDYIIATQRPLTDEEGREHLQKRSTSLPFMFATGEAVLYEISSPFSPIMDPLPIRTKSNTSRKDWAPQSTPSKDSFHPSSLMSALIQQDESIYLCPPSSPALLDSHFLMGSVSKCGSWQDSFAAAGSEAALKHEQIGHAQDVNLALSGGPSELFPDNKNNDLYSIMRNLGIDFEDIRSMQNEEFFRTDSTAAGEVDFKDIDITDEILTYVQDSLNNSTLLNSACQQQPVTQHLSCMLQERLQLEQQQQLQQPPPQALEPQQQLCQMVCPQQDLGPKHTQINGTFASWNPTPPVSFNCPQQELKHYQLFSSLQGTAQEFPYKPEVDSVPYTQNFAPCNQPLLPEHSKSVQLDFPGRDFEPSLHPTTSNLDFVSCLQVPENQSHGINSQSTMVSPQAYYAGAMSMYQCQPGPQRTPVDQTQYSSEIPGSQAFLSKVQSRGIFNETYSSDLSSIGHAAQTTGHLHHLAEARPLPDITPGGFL
Test: In vitro assay 3: antagonism in mouse cell line (AHR transactivation, firefly luciferase reporter, kynurenic acid prestimulated)
Format: cell-based
Settings: mouse Hepa 1c1c7 cells, 200 μM kynurenic acid, 20 hours, read-out: AHR Antagonism Mouse IC50
Method: Examples were tested in selected biological assays one or more times. […] Firefly luciferase activity was determined by the SteadyGlo Luciferase Assay System (Promega, #E2550).
pIC50: −log10 of the molar value.
Measurement Name: pIC50

INSERT INTO measurements (compound, comparison_symbol, result_number) VALUES
  ('O=C1NCCCC[C@H]1Nc1nc2ccccc2c2nc(-c3ccco3)nn12', '=', 8.24),
  ('COc1ccc2nc(N[C@@H]3CCCCNC3=O)n3nc(-c4ccccc4F)nc3c2c1', '=', 6.77),
  ('COc1cccc(-c2nc3c4ccccc4nc(N[C@H](CO)C(=O)O)n3n2)c1', '<', 4.70),
  ('COc1cccc(-c2nc3c4ccccc4nc(N[C@H](CCSC)C(N)=O)n3n2)c1', '=', 6.57),
  ('CC[C@H](Nc1nc2ccccc2c2nc(-c3ccccc3OC(F)(F)F)nn12)C(N)=O', '=', 7.09),
  ('N#Cc1cccc(-c2nc3c4ccccc4nc(NC4CCCCCNC4=O)n3n2)c1 (centres unmarked)', '=', 9.17),
  ('COc1ccc(-c2nc3c4ccc(F)cc4nc(N[C@@H]4CCCCNC4=O)n3n2)cc1', '=', 8.93),
  ('Cc1n[nH]cc1-c1nc2c3cccc(C(F)(F)F)c3nc(N[C@@H]3CCCCNC3=O)n2n1', '=', 7.34),
  ('COc1ccc(-c2nc3c4cccc(F)c4nc(N[C@@H]4CNCCNC4=O)n3n2)cc1', '=', 7.84),
  ('O=C1NCCNCC1Nc1nc2cccc(C3CC3)c2c2nc(-c3cccc(F)c3)nn12 (single isomer, unassigned) [Example 301]', '=', 5.65),
  ('Cn1cc(-c2nc3c4cc(Cl)ccc4nc(N[C@@H]4CCCCNC4=O)n3n2)cn1', '=', 7.67),
  ('CC[C@H](Nc1nc2ccccc2c2nc(-c3ccccc3S(C)(=O)=O)nn12)C(N)=O', '=', 5.07),
  ('CS(=O)(=O)c1ccccc1-c1nc2c3ccccc3nc(N[C@@H]3CCCCNC3=O)n2n1', '=', 7.56),
  ('CN1CCC(n2cc(-c3nc4c5ccccc5nc(N[C@@H]5CCCCNC5=O)n4n3)cn2)CC1', '=', 5.50),
  ('O=C1NCCNC[C@H]1Nc1nc2ccccc2c2nc(-c3ccccc3C(F)(F)F)nn12', '=', 7.07),
  ('O=C1NCCCC[C@H]1Nc1nc2c(Br)cc(Br)cc2c2nc(-c3ccc(F)cc3)nn12', '=', 5.62),
  ('N#Cc1cccc2c1nc(N[C@@H]1CCCCNC1=O)n1nc(-c3cnn(C(F)F)c3)nc21', '=', 8.76),
  ('COc1ccc(-c2nc3c4cccc(SC)c4nc(N[C@@H]4CCCCNC4=O)n3n2)cc1', '=', 7.33),
  ('O=C1NCCCC[C@H]1Nc1nc2ccccc2c2nc(-c3cccnc3F)nn12', '=', 7.51),
  ('O=C1NCCNC[C@H]1Nc1nc2c(C(F)(F)F)cccc2c2nc(-c3ccc(F)cc3)nn12', '=', 9.46),
  ('CC[C@@H](Nc1nc2ccccc2c2nc(-c3cc(Br)ccc3OC(F)(F)F)nn12)C(N)=O', '=', 7.39),
  ('COc1ccc(-c2nc3c4c(Cl)cccc4nc(NC4CNCCNC4=O)n3n2)cc1 (single isomer, unassigned) [Example 297]', '=', 7.60),
  ('COCCn1cc(-c2nc3c4ccccc4nc(N[C@@H]4CCCCNC4=O)n3n2)cn1', '=', 7.74),
  ('Cn1cc(-c2nc3c4ccccc4nc(N[C@H](CO)C(N)=O)n3n2)cn1', '<', 4.70),
  ('COc1ccc(-c2nc3c4cc(C)ccc4nc(N[C@@H]4CCCCNC4=O)n3n2)cc1', '=', 8.71),
  ('COc1cccc(-c2nc3c4cc(F)ccc4nc(NC4CCNC4=O)n3n2)c1 (single isomer, unassigned) [Example 187]', '=', 6.49),
  ('COc1ccc(-c2nc3c4cc(C(F)(F)F)ccc4nc(N[C@@H]4CCCCNC4=O)n3n2)cc1', '<', 4.70),
  ('Cc1ccccc1-c1nc2c3ccccc3nc(NC3CCNC3=O)n2n1 (single isomer, unassigned) [Example 51]', '=', 6.88),
  ('CC[C@@H](Nc1nc2ccccc2c2nc(-c3cnccc3C(F)(F)F)nn12)C(N)=O', '=', 7.30),
  ('COc1cccc(-c2nc3c4ccccc4nc(N[C@H](C)C(=O)NC4CCC4)n3n2)c1', '=', 8.38),
  ('O=C1NCC[C@H]1Nc1nc2ccccc2c2nc(-c3ccccc3OC(F)F)nn12', '=', 7.75),
  ('Cc1ccccc1-c1nc2c3ccccc3nc(NC3CNCCNC3=O)n2n1 (single isomer, unassigned) [Example 47]', '=', 7.55);

----------
Target: AHR (Homo sapiens)
Construct: U87 MG glioblastoma cells (ATCC #HTB-14) endogenously expressing AHR; endogenous in cells; host or cells: U87 MG glioblastoma cells (ATCC #HTB-14)
Sequence (P35869 11-848): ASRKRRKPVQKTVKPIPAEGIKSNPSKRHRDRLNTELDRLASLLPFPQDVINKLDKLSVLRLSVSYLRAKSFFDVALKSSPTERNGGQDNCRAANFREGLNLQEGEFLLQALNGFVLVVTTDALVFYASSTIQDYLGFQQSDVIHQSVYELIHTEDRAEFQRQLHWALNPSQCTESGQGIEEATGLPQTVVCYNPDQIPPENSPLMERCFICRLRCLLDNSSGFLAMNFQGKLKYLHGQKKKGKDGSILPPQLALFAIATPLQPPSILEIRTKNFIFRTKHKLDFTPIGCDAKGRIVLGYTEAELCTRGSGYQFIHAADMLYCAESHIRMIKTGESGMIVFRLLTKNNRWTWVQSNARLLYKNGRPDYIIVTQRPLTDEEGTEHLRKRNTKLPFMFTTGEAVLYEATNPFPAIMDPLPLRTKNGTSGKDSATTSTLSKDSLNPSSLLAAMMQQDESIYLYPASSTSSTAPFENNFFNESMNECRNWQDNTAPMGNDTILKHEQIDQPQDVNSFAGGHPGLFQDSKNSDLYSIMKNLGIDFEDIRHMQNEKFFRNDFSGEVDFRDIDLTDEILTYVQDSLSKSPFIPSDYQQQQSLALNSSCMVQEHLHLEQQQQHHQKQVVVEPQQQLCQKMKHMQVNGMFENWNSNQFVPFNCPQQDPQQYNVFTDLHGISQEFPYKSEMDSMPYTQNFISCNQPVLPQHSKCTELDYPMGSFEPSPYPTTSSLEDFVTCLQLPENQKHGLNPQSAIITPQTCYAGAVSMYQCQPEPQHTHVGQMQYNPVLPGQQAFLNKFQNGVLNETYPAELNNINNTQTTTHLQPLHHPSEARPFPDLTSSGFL
Test: In vitro assay 1: antagonism in human cell line (AHR transactivation, firefly luciferase reporter, kynurenic acid prestimulated)
Type: cell-based
Conditions: read-out: AHR Antagonism Human IC50
Method: Examples were tested in selected biological assays one or more times. […] Firefly luciferase and Renilla activity was determined by the DualGlo Luciferase Assay System (Promega, #2920). […]
Measurement Name: IC50

INSERT INTO assay_data (molecule, measurement_name, result) VALUES
  ('O=C1NCCNCC1Nc1nc2cccc(C3CC3)c2c2nc(-c3cccc(F)c3)nn12 (single isomer, unassigned) [Example 301]', 'IC50', '> 20 µM');
